- measurementDescription: Human HepG2 cell viability assay in 384 well format
- Type: toxicity, cell-based
- Set-up: dose 125 nL, time 70.5 hour; concentration not given beside the values
- testConditions: HepG2 cells, read-out: Inhibition
Each entry below lists one item and its recorded cytotoxicity at 70.5 h value.
Give a bare numeral; the unit % is implied.

>>> df
                                   molecule  obsvalue
0  Cc1cccc(C)c1Nc1noc2c1CN(C(=O)c1cn(C)cn1)CC2      75.1
1  Cc1nnc(NC(=O)C2CSCN2C(=O)C2CCCC2)s1 (stereo unspecified)     -3.18
2       O=C(CSc1ccccn1)N1CCC(OCc2cccnc2)CC1     -18.6
3  Cc1cc(C)c(S(=O)(=O)NCCC(=O)NCc2ccoc2)c(C)c1      3.02
4  CCN1C[C@H]2C3(CCN(C(=O)NC(C)C)CC3)CC[C@@]2(C(=O)N(C)C)C1     -8.21

Could you now consider this next molecule?
Prompt: Quick one: cytotoxicity at 70.5 h of CCN1CCN(C(=O)C(C)N2CCN(Cc3nccn3C)CC2)CC1 (stereo unspecified) ?
Response: 0.843

* * *

Each record here notes measured cytotoxicity at 70.5 h.
- measurementDescription: Human HepG2 cell viability assay in 384 well format
- Format: toxicity, cell-based
- Parameters: dose 125 nL, time 70.5 hour; concentration not given beside the values
- testConditions: HepG2 cells, read-out: Inhibition
Give the quantity in %, number only.

# count of solved cases: 5
In [3]: df
Out[3]:
                                   compound        propertymeasured  obsvalue
0  COC(C)(CNS(=O)(=O)c1cnn(C)c1)c1ccccc1F (stereo not drawn)  cytotoxicity at 70.5 h    -0.155
1  CCn1c(C(=O)N2CCN(CC[S+](C)[O-])CC2)cc2ccccc21 (stereo not drawn)  cytotoxicity at 70.5 h     0.944
2  CCC(=O)c1ccc(OCC(=O)NC(C)c2ncnn2CC)cc1 (stereo not drawn)  cytotoxicity at 70.5 h     -17.2
3   C1CCN(CCOC2CCNC2)CC1 (stereo not drawn)  cytotoxicity at 70.5 h     -3.02
4  CN(C)C(=O)c1ccc(C2CCCN2C(=O)c2cccc3c2OCC3)s1 (stereo not drawn)  cytotoxicity at 70.5 h     -6.24

Prompt: Looking for the measured cytotoxicity at 70.5 h of `CCn1nc(C)c(CCNC(=O)c2cccc(-n3cccn3)c2)c1C` , can you help?
Response: -3.23

Prompt: Query (compound): CC1CCc2nc(NS(=O)(=O)c3cnn(C)c3)sc2C1 (stereo not drawn) ; field requested: cytotoxicity at 70.5 h
Response: 0.918

Prompt: Given the compound CCOC(=O)N1CCN(C(=O)C(CC)n2cccn2)CC1 (stereo not drawn) , what is its reported cytotoxicity at 70.5 h?
Response: 5.86

* * *

- measurementDescription: Human HepG2 cell viability assay in 384 well format
- Type: toxicity, cell-based
- Set-up: dose 125 nL, time 70.5 hour; concentration not given beside the values
- testConditions: HepG2 cells, read-out: Inhibition
propertyMeasured: cytotoxicity at 70.5 h

The cases that follow already have their cytotoxicity at 70.5 h on record.
In [3]: df
Out[3]:
                                   compound  obsvalue
0   Cc1cnc(N2CCc3ncnc(N4CCN(C)CC4)c3CC2)nc1    -2.07%
1  Cc1csc(C(Cc2ccsc2)NC(=O)Cn2cccnc2=O)n1 (configuration not stated)     14.5%
2  c1cc2occc2c(N2CCCC(c3nncn3C3CC3)C2)n1 (configuration not stated)     17.6%
3          Cc1nc2ccn(C(C)C)c(=O)c2cc1C(=O)O    -24.7%
4  CCC(O)CN1CCN(C(=O)Cc2nc(-c3ccco3)oc2C)CC1 (configuration not stated)    -2.09%

Prompt: So what does the record say about cytotoxicity at 70.5 h for COc1ccc(NC2CCc3c2[nH]c(=O)n(C2CCCCC2)c3=O)cc1 (configuration not stated) ?
Response: -28.5%

Prompt: Would you mind telling me what cytotoxicity at 70.5 h value was observed for `CCOc1ccccc1N1CCN(C(=O)c2cc[nH]n2)CC1` ?
Response: 0.935%

Prompt: Entry c1cnn(CC2CCCN2Cc2noc(C3CC3)n2)c1 (configuration not stated) : reported cytotoxicity at 70.5 h = ?
Response: -3.73%

Prompt: Given the entry Cc1cccc(Nc2ccc(C3CCCCN3)cn2)n1 (configuration not stated) , report its measured cytotoxicity at 70.5 h.
Response: 4.51%

Prompt: Suppose we examine the compound `CN(C(=O)c1ccnn1C)[C@@H]1CCC[C@@H](Oc2ccccc2)[C@@H]1O` ; what cytotoxicity at 70.5 h value has been reported?
Response: -3.62%

Prompt: What value of measured cytotoxicity at 70.5 h is listed for `Cc1cc(NC(N)=O)ccc1OCC(F)(F)F` ?
Response: -2.1%

Prompt: Entry Cc1cnc(CC2COCCN(C(=O)c3cncnc3)C2)cn1 (configuration not stated) : reported cytotoxicity at 70.5 h = ?
Response: -5.02%
